B1: LINE1-mini (parent)
chain: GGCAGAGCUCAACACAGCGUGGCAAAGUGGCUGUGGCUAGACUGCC

Variants of: B1
Assay: self-cleavage, relative activity (ratio to wild type); higher = more cleavage; in vitro, sequencing; the parent is a self-cleaving ribozyme
Label class 1 when self-cleavage is at or above 0.07; anything below gets class 0.

Sequence code	Assigned label
GGCAGAGCUCAACACAGCGUGGCCAAGUGGCUGUGGCUAGAUUGCC [A24C C42U]	class 1
GGCAGAGCUCAGGACAGCGUGGCAAAGUGGCUGUGGCUAGACUGCC [A12G C13G]	class 0
GGCAGAGCUCAACACAGCGUGGCAAAGUCGCUGUGGCUUGACUGCC [G29C A39U]	class 1
GGCAGAGCUCAACACAGCGUGGCAAAGUGGCUGUGGCUAUACUGCA [G40U C46A]	class 1
GGCAGAGCGCGACACAGCGUGGCAAAGUGGCUGUGGCUAGACUGCC [U9G A11G]	class 0
GUCACAGCUCAACACAGCGUGGCAAAGUGGCUGUGGCUAGACUGCC [G2U G5C]	class 0
GGCAGAGCUCAACACAGCGUGUUAAAGUGGCUGUGGCUAGACUGCC [G22U C23U]	class 1
GGCAGAGCUCAACACAGCGUGGCAAAGUGGCUGUAGCUUGACUGCC [G35A A39U]	class 1
GGCAGAGCUCAACACAGCGUGGCGAAGUGGCUGUGGCUAGAUUGCC [A24G C42U]	class 1
GGCAGAACUCAACACAGCGUUGCAAAGUGGCUGUGGCUAGACUGCC [G7A G21U]	class 1
